This collection of values is drawn from ChEMBL document CHEMBL3286148.

# Assay info: Cmax in Plasmodium falciparum 3D70087/N9 infected NODscidIL2Rgamma-null mouse at 30 mg/kg, po by LC-MS/MS analysis
# Format: ADME, organism-based
# Design: dose 30 mg/kg, route oral
# Assay setup: in vivo
Measurement label: Cmax (ng/mL)
Just the number in ng/mL, nothing appended.

Incoming: Find the recorded Cmax belonging to CC(Oc1ccc2nc(N)n(CC(O)c3ccc(C(F)(F)F)cc3Cl)c2n1)C(F)(F)F (racemic) and report it.
Outgoing: 680

* * *

# Test system: Plasmodium falciparum
# Assay info: microbe, parasite or virus in culture
# Assay setup: NF54, 72 h
Measurement label: IC50 (nM)
State just the number; it will be interpreted in nM.

- N#Cc1ccc2nc(N)n(CC(O)c3cccc(Cl)c3Cl)c2c1 (racemic): 29
- CCc1nc(N)nc(N)c1-c1ccc(Cl)cc1: 28.3
- Nc1nc2ccccc2n1-c1ccccc1O: 84
- Nc1nccn1CC(O)c1ccc(Cl)cc1Cl (racemic): 380

Incoming: Query for Plasmodium falciparum: what IC50 does the record show for Nc1nc2ccc(OC3CCOC3)nc2n1CC(O)c1ccc(C(F)(F)F)cc1Cl (racemic) ?
Outgoing: 25

Incoming: Please state recorded IC50 (tested on Plasmodium falciparum) of Nc1ncccc1CC(O)c1cccc(Cl)c1Cl (racemic)
Outgoing: 180

Incoming: Give IC50 (Plasmodium falciparum) of the following molecule: CC(Oc1ccc2nc(N)n(CC(O)c3ccc(C(F)(F)F)cc3Cl)c2n1)C(F)(F)F (racemic)
Outgoing: 40

Incoming: // fetch Plasmodium falciparum IC50 for Nc1nc2cccnc2n1CC(O)c1cccc(Cl)c1Cl (racemic)
Outgoing: 340

Incoming: # get_value(readout= IC50, system= Plasmodium falciparum) for Nc1nc2ccccc2n1CC(O)c1ccc(Cl)cc1Cl (racemic)
Outgoing: 18

* * *

Entries and their logD values follow.
# Assay info: Lipophilicity, log D of the compound
# Type: physicochemical
# Assay setup: octanol/water
Hey, just send me the number, nothing else.

• CN1CCN(c2ccc3nc(N)n(CC(O)c4ccc(C(F)(F)F)cc4Cl)c3n2)CC1 (racemic) = 2.8
• Nc1nc2ccc(OC3CCOC3)nc2n1CC(O)c1ccc(C(F)(F)F)cc1Cl (racemic) = 3.7

Continue with the molecule presented below.
Incoming: Could you tell me which logD is on file for Nc1nc2cccnc2n1CC(O)c1cccc(Cl)c1Cl (racemic) ?
Outgoing: 3

* * *

# Assay info: Half life in Wistar rat at 1 mg/kg, iv
# Assay type: ADME, organism-based
# Parameters: dose 1 mg/kg, route intravenous
# Assay setup: in vivo
Measurement label: half-life

Incoming: Report half-life for CC(Oc1ccc2nc(N)n(CC(O)c3ccc(C(F)(F)F)cc3Cl)c2n1)C(F)(F)F (racemic) please.
Outgoing: 1.76 h

* * *

# System: Plasmodium falciparum
# Assay info: Antiplasmodial activity against Plasmodium falciparum Dd2 harboring DHODH mutant
# Format: functional, organism-based
# pIC50 per entry
Reminder that pIC50 means the negative base-10 logarithm of the concentration expressed in mol/L.

Take a look at these entries with their results.
* Cc1nc2c(C#N)cccc2n1-c1ccc(C(=O)NC2CC2)s1 | 7.11
* C[C@@H]1CC[C@H]2[C@@H](C)C(=O)O[C@@H]3O[C@@]4(C)CC[C@@H]1[C@]32OO4 | 8.74
* COC1=C2C[C@@H](C)C[C@H](OC)[C@H](O)[C@@H](C)/C=C(\C)[C@H](OC(N)=O)[C@@H](OC)/C=C\C=C(/C)C(=O)NC(=CC1=O)C2=O | 6.59
* CN1CCN(C(=O)c2ccc3c(c2)N(Cc2c(F)cccc2Cl)C(=O)c2ccccc2S3)CC1 | 7.77

Incoming: Quick check: pIC50 of Nc1nc2ccc(OCC(F)(F)F)nc2n1CC(O)c1ccc(C(F)(F)F)cc1Cl (racemic) ?
Outgoing: 7.71

* * *

# Assay info: Clearance in rat hepatocytes assessed per 1E6 cells
# Format: ADME, cell-based, Hepatocyte
# Assay setup: read-out: CLH
Documented hepatocyte CLint across a set of molecules
Entry rule: numbers only, all in µL/min/1e6 cells.

• N#Cc1ccc2nc(N)n(CC(O)c3cccc(Cl)c3Cl)c2c1 (racemic) = 53
• Nc1nc2ccc(OC3CNC3)nc2n1CC(O)c1ccc(C(F)(F)F)cc1Cl (racemic) = 14
• Nc1nc2cnccc2n1CC(O)c1ccc(Cl)cc1Cl (racemic) = 14

Incoming: Which hepatocyte CLint value belongs to Nc1nc2ccc(C(F)(F)F)cc2n1CC(O)c1ccc(C(F)(F)F)cc1Cl (racemic) ?
Outgoing: 31

Incoming: Reported hepatocyte CLint for Nc1nc2ccc(OC3CCOC3)nc2n1CC(O)c1ccc(C(F)(F)F)cc1Cl (racemic) : what is it?
Outgoing: 105

Incoming: For the molecule Nc1nc2ccc(OCC(F)(F)F)nc2n1CC(O)c1ccc(C(F)(F)F)cc1Cl (racemic) , what hepatocyte CLint is on record?
Outgoing: 36

Incoming: Item Nc1nc2ccc(NCC(F)(F)F)nc2n1CC(O)c1ccc(Cl)cc1Cl (racemic) has what recorded hepatocyte CLint?
Outgoing: 198

Incoming: Please look up its hepatocyte CLint: CC(Oc1ccc2nc(N)n(CC(O)c3ccc(C(F)(F)F)cc3Cl)c2n1)C(F)(F)F (racemic)
Outgoing: 43

Incoming: State the recorded hepatocyte CLint for this entry: Nc1nc2ccc(C3CC3)nc2n1CC(O)c1ccc(Cl)cc1Cl (racemic)
Outgoing: 94

* * *

# Assay info: AUC in Wistar rat at 1 mg/kg, iv
# Type: ADME, organism-based
# Parameters: dose 1 mg/kg, route intravenous
# Assay setup: plasma
Measurement label: AUC (µM·h)
Number in µM·h, nothing else.

Incoming: // lookup AUC for CC(Oc1ccc2nc(N)n(CC(O)c3ccc(C(F)(F)F)cc3Cl)c2n1)C(F)(F)F (racemic)
Outgoing: 1.66

* * *

# Test system: Cytochrome P450 1A2 (Homo sapiens)
# Sequence (P05177 whole entry): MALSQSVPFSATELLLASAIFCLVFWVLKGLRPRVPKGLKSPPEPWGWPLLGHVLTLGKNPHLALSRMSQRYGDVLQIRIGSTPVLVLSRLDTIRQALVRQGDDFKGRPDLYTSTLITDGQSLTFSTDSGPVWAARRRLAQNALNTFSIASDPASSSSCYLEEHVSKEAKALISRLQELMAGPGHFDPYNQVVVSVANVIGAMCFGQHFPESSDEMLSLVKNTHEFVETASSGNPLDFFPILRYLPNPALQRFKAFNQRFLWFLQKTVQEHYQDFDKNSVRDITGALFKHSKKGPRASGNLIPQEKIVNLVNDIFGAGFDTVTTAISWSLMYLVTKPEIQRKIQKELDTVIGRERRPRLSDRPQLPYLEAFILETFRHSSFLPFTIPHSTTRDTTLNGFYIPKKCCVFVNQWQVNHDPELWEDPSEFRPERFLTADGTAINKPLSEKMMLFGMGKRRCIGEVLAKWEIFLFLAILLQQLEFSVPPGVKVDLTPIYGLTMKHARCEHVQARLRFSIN
Listed below: IC50 values for each entry.
Please reply with the bare figure in µM and do not write the unit itself.

* Nc1nc2cccnc2n1CC(O)c1cccc(Cl)c1Cl (racemic) | 5.2

Incoming: # IC50 lookup, item Nc1nc2ccc(C(F)(F)F)cc2n1CC(O)c1ccc(C(F)(F)F)cc1Cl (racemic)
Outgoing: 29.4

* * *

# Assay info: AUC (0 to 23 hrs) in Plasmodium falciparum 3D70087/N9 infected NODscidIL2Rgamma-null mouse at 30 mg/kg, po by LC-MS/MS analysis
# Format: ADME, organism-based
# Parameters: time < 23 hr, dose 30 mg/kg, route oral
# Assay setup: plasma
Measurement label: AUC(0-t) at 23 h (ng·h/mL)
Just the number in ng·h/mL, nothing appended.

Incoming: Query: AUC(0-t) at 23 h; subject: CC(Oc1ccc2nc(N)n(CC(O)c3ccc(C(F)(F)F)cc3Cl)c2n1)C(F)(F)F (racemic)
Outgoing: 6930

* * *

# Test system: Cytochrome P450 3A4 (Homo sapiens)
# Sequence (P08684 whole entry): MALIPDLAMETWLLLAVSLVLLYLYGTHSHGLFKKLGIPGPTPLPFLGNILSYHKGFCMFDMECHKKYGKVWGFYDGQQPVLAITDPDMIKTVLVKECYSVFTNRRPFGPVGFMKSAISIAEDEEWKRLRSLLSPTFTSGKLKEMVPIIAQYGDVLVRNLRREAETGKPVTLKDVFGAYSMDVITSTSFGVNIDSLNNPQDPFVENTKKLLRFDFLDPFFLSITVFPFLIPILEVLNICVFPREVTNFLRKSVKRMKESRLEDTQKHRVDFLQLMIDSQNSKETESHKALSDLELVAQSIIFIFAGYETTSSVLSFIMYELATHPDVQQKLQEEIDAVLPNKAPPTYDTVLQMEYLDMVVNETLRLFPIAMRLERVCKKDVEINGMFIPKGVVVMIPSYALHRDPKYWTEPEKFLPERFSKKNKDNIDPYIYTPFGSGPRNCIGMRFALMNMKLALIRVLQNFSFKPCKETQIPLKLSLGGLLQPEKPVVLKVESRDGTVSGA
# reported IC50; entries follow

• Nc1nc2cccnc2n1CC(O)c1cccc(Cl)c1Cl (racemic) = > 30 µM
• CN1CCN(c2ccc3nc(N)n(CC(O)c4ccc(C(F)(F)F)cc4Cl)c3n2)CC1 (racemic) = 14.1 µM
• Nc1nc2ccc(C(F)(F)F)cc2n1CC(O)c1ccc(C(F)(F)F)cc1Cl (racemic) = > 30 µM
• CC(Oc1ccc2nc(N)n(CC(O)c3ccc(C(F)(F)F)cc3Cl)c2n1)C(F)(F)F (racemic) = 20.3 µM

Incoming: Give IC50 (Cytochrome P450 3A4 (Homo sapiens)) of the following molecule: Nc1nc2ccc(OC3CCOC3)nc2n1CC(O)c1ccc(C(F)(F)F)cc1Cl (racemic)
Outgoing: 2.4 µM

* * *

# Assay info: Fraction unbound in human plasma
# Assay type: ADME, cell-free
fraction unbound values, listed per item

• Nc1nc2cccnc2n1CC(O)c1cccc(Cl)c1Cl (racemic) = 0.118
• CN1CCN(c2ccc3nc(N)n(CC(O)c4ccc(C(F)(F)F)cc4Cl)c3n2)CC1 (racemic) = 0.234
• CC(Oc1ccc2nc(N)n(CC(O)c3ccc(C(F)(F)F)cc3Cl)c2n1)C(F)(F)F (racemic) = < 0.01
• Nc1nc2ccc(C(F)(F)F)cc2n1CC(O)c1ccc(C(F)(F)F)cc1Cl (racemic) = < 0.01

Okay, now this compound:
Incoming: Endpoint output: fraction unbound of Nc1nc2ccc(OC3CCOC3)nc2n1CC(O)c1ccc(C(F)(F)F)cc1Cl (racemic) . Value?
Outgoing: 0.026
